- Tested on: Aspergillus fumigatus
- method_summary: Antimicrobial activity against Aspergillus fumigatus MTCC 343 assessed as diameter of growth inhibition zone after 48 hr; also: test concentration or dose not given here
- Assay type: functional
As shown below, each of these compounds has a reported diameter of the inhibition zone (DIZ) value.
outcome_measure: diameter of the inhibition zone (DIZ) (mm)

• N#Cc1c(-c2ccccc2)cc(-c2ccc(Nc3cc(=O)oc4ccccc34)cc2)nc1N = 21
• CC(=O)N1CCN(c2ccc(OCC3COC(Cn4ccnc4)(c4ccc(Cl)cc4Cl)O3)cc2)CC1 (stereo not drawn) [KETOCONAZOLE] = 29
• CC(=O)N1N=C(c2ccc(Nc3cc(=O)oc4ccccc34)cc2)CC1c1ccc(C)cc1 (stereo not drawn) = 15
• COc1ccc(-c2cc(-c3ccc(Nc4cc(=O)oc5ccccc45)cc3)nc(N)n2)cc1 = 20
• Cc1ccc(-c2cc(-c3ccc(Nc4cc(=O)oc5ccccc45)cc3)nc(N)n2)cc1 = 18
• N#Cc1c(-c2ccc(O)cc2O)cc(-c2ccc(Nc3cc(=O)oc4ccccc34)cc2)nc1N = 25
• COc1ccc(/C=C/C(=O)c2ccc(Nc3cc(=O)oc4ccccc34)cc2)cc1 = 16
• Cc1ccc(/C=C/C(=O)c2ccc(Nc3cc(=O)oc4ccccc34)cc2)cc1 = 13
